Where these numbers come from: PubChem BioAssay (NCATS)

tgt: Rap guanine nucleotide exchange factor 3 (Homo sapiens) (UniProt O95398)
Sequence (O95398 whole entry, looked up): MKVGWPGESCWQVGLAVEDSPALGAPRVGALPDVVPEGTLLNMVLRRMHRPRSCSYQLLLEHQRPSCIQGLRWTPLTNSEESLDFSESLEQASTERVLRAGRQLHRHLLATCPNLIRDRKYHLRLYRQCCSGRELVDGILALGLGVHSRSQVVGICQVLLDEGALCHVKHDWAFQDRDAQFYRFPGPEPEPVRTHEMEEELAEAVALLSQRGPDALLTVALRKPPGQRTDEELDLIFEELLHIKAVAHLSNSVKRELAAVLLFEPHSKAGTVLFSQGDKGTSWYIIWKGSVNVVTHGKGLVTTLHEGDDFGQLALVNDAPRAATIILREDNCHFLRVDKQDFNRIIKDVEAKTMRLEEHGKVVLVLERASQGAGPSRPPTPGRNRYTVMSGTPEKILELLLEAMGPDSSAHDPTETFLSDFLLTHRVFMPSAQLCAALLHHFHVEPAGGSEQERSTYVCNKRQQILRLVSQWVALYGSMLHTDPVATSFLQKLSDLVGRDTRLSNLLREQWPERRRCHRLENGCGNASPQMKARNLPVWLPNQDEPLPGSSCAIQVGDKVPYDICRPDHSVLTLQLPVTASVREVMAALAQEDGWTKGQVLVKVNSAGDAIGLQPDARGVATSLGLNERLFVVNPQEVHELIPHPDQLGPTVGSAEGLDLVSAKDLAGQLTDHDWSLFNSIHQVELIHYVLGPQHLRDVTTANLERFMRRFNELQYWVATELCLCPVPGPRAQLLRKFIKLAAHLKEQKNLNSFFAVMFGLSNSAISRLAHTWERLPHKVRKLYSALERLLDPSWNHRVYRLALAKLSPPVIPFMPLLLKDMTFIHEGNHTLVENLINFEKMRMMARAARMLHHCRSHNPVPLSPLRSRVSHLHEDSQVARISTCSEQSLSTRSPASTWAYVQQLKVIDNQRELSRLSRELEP
procedure-text: Counterscreen qHTS for antagonist of cAMP-regulated guanine nucleotide exchange factor 3 (EPAC1) (AID 1645888);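 further: fluorescence loss as bound BODIPY-GDP is released from Rap1B; % of control where 0% means no effect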
measurement-parameters: Rap1B-BODIPY-GDP nucleotide exchange, fluorescence; series mostly up to 154 µM
Results filed as inconclusive are left out. Activity calls are given as the source filed them. The call rests on the fitted dose curve; in most records, active means well fitted inhibition curve with a large enough effect; inconclusive means small, poorly fitted or top-dose-only effect; inactive means no such curve, though single readings can be large or run the other way.
measurement-label: activity change, negative = inhibition

# value lookup — system Rap guanine nucleotide exchange factor 3 (Homo sapiens) (UniProt O95398), readout activity change, negative = inhibition, item "C=CCn1c(CSCc2ccc(Cl)cc2Cl)nnc1SCC(=O)Nc1ccc(C(=O)O)cc1"
-5.41% [at 30.8 µM] (inactive)

Input "CC(=O)Nc1cccc(NC(=O)CSc2nc(=O)n(CCN3CCOCC3)c3c2CCCC3)c1"
inactive

// query: "CCOC(=O)c1cnc2ccccc2c1Nc1cccc(OC)c1"
inactive

Now the same for "CC(=O)N1CCc2nc3sc(C(=O)Nc4ccc(Cl)cc4F)c(N)c3c(C(F)(F)F)c2C1"
inactive

And then "CC(C)O/C(=N\S(=O)(=O)c1ccc(Cl)cc1)c1ccccc1" , what is it?
inactive

Field entry: "O=C1NC(=O)/C(=C/c2ccccn2)S1"
inactive

Moving on to "CN1OC[C@@H]2CN(C(=O)CCc3ccccc3)[C@H](c3cccc(-c4ccc(C#N)cc4)c3)C[C@@H]21"
inactive

What about this molecule? "COc1cnc(-c2ccccn2)nc1Oc1c(C)cccc1C"
inactive

Record: Cc1ccc(CNC(=O)C(=O)NCCC2CCCCN2S(=O)(=O)c2cccs2)cc1 (stereo not given)
-26.3% [at 30.8 µM] (inactive)

Please look at the following molecule next.
Query for Rap guanine nucleotide exchange factor 3 (Homo sapiens) (UniProt O95398): what activity change, negative = inhibition does the record show for "CCCc1cc(=O)oc2c3c(cc(OCC(=O)NCc4ccccn4)c12)OC(C)(C)CC3" ?
inactive
